Test target: Histamine H3 receptor (Homo sapiens, UniProt Q9Y5N1)
Sequence (Q9Y5N1 whole entry): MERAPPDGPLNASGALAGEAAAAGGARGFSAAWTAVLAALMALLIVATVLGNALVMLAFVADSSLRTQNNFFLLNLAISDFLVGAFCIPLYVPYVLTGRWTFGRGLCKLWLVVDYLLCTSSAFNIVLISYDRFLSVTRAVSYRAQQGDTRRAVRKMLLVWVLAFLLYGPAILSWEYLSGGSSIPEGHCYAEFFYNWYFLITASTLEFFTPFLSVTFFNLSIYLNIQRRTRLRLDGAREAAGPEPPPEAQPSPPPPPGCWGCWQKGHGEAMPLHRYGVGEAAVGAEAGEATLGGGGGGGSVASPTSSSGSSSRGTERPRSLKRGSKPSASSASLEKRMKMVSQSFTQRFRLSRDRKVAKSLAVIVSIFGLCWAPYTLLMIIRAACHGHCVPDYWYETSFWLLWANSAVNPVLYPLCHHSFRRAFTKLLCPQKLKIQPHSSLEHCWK
Reported endpoint: Ki

Q: Please give measured Ki of the following entry: `CN(C)CC[C@@H](Oc1cccc2c1OCO2)c1ccc(F)cc1.O=C(O)C(=O)O`
Ans: > 1000 nM

* * *

Protocol notes: Half-life in CD1 mouse at 2 mg/kg, iv measured upto 10 hrs by LC-MS analysis
Format: ADME, organism-based
Condition label: in vivo
Reported endpoint: half-life (min)
Could you give me the number in min? Just the number is fine.

Q: Please give measured half-life of the following entry: `CN(C)CC[C@@H](Oc1cccc2c1OCO2)c1ccc(F)cc1.O=C(O)C(=O)O`
Ans: 72
